test system: UACC-62; experiment: Antitumor activity against human UACC-62 cells assessed as growth inhibition at 10 uM relative to control; type: functional; details: read-out: GI
property_name: inhibition of growth at 10 µM (%)

N#Cc1c(-c2ccc(Cl)cc2)nc(N/N=C/c2ccco2)nc1N1CCOCC1 ... 41.8
N#Cc1c(-c2ccc(Cl)cc2)nc(N/N=C/c2cccc([N+](=O)[O-])c2)nc1N1CCOCC1 ... 27.6
N#Cc1c(-c2ccc(Cl)cc2)nc(NN)nc1N1CCOCC1 ... 10.7
CC1=NN(c2nc(-c3ccc(Cl)cc3)c(C#N)c(N3CCOCC3)n2)C(=O)C1 ... 21
N#Cc1c(-c2ccc(Cl)cc2)nc(N/N=C/c2ccc[nH]2)nc1N1CCOCC1 ... 12
CSc1nc(Cl)c(C#N)c(-c2ccc(Cl)cc2)n1 ... 25.6
